- experiment summary: gradient 5% acetonitrile 3 min, to 50% in 2 min, to 85% in 15 min, held 3 min, 100 µL/min
- conditions used: column: Zorbax Extend-C18 2.1 x 50 mm; eluents: water / acetonitrile, 0.1% formic acid
Decide using RP-LC retention time: a value greater than or equal to 700 s is fulfilled, a smaller one is not fulfilled.

Below, 6 molecules whose answers are already recorded.
>>> group_label("COc1ccccc1-c1nnc(Nc2nc3ccc(SC)cc3s2)o1")
"fulfilled"
>>> group_label("O=C(Nc1ccc2c(c1)OCCO2)C1CCCN(S(=O)(=O)c2c[nH]c(C(=O)N3CCCC3)c2)C1 (stereo not given)")
"fulfilled"
>>> group_label("O=C(O)c1cccnc1SC1CC(=O)N(c2ccc(F)c(Cl)c2)C1=O (stereo not given)")
"fulfilled"
>>> group_label("COc1cccc(CN2CC(N(C3CCOCC3)S(C)(=O)=O)C2)c1")
"not fulfilled"
>>> group_label("CC(C)C(NC(=O)c1ccco1)C(=O)N1CCC(c2noc(-c3ccccc3)n2)CC1 (stereo not given)")
"fulfilled"
>>> group_label("CCc1nnc(-c2ccc3ccn(CC(=O)N4CCN(c5cccc(Cl)c5)CC4)c3c2)o1")
"fulfilled"

QUERY: Hi, just wondering whether CC(C)NC(=O)c1ccc(OCC2CCN(C(=O)c3ccc(F)cc3F)CC2)cc1 shows RP-LC retention time of 700 s or higher.
RESULT: fulfilled

QUERY: And what about the molecule CC1=C(c2ccccc2)S(=O)(=O)N=C1N1CCCN(C(=O)C(C)(C)C)CC1 ?
RESULT: fulfilled

QUERY: And what about the molecule CCc1ccc(CNC(=O)Cc2nnc(-c3ccccn3)o2)cc1 ?
RESULT: fulfilled

QUERY: And what about the molecule COCCn1ncc(N2CCC(C(=O)NCc3ccc(C)o3)C2)cc1=O (stereo not given) ?
RESULT: not fulfilled

QUERY: And what about the molecule Cn1cnnc1C1CCCCN1C(=O)c1cc(-c2cccs2)[nH]n1 (stereo not given) ?
RESULT: not fulfilled

QUERY: And what about the molecule O=C(Nc1cnc(N2CCCC2)c(C(=O)O)c1)c1ccc(Cl)cc1 ?
RESULT: not fulfilled

QUERY: And what about the molecule Cc1nn(Cc2nc(-c3ccc(NC(=O)c4ccsc4)cc3)oc2C)c(C)c1C ?
RESULT: fulfilled

QUERY: And what about the molecule COc1ccc(Cl)cc1C(=O)N1CCCN(C2CCN(CC3CC3)C2=O)CC1 (stereo not given) ?
RESULT: not fulfilled

QUERY: And what about the molecule COc1ccc(-n2nnc(C(=O)O)c2C)cc1OC ?
RESULT: not fulfilled

QUERY: And what about the molecule Cc1cccc(CC(=O)NC2CCN(c3cc(-c4cccs4)[nH]n3)C2)c1 (stereo not given) ?
RESULT: fulfilled

QUERY: And what about the molecule O=C([C@@H]1C[C@H](F)CN1C(=O)NCc1ccc(OC(F)(F)F)cc1)N1CCCCC1 ?
RESULT: fulfilled

QUERY: And what about the molecule N#Cc1cnc2nc(-c3ccccc3)nn2c1N ?
RESULT: not fulfilled

* * *

Provide the recorded RP-LC retention time for the entries that follow.
- experiment summary: gradient 5% acetonitrile 3 min, to 50% in 2 min, to 85% in 15 min, held 3 min, 100 µL/min
- conditions used: column: Zorbax Extend-C18 2.1 x 50 mm; eluents: water / acetonitrile, 0.1% formic acid
Numbers only, in s.

Give measured RP-LC retention time for every item shown.
1. Cc1nc(-c2csc(S(=O)(=O)N3CCCC(C(=O)NC4CCCCCCC4)C3)c2)no1 (stereo not given)
2. COc1ncc(C(=O)NCc2cccc(Br)c2)cn1
3. CC(C)Oc1ccc(CNC(=O)C2(C)CCCCC(=O)N2)cc1 (stereo not given)
4. CCCN1C(=O)c2c(C(=O)NCc3cccc(C)c3)ncn2CC1(C)C(=O)NC1CCCC1 (stereo not given)
5. O=C(CN1C(=O)CC(c2ccccc2)S(=O)(=O)c2ccccc21)N1CCOCC1 (stereo not given)

RESULT:
1: 1060; 2: 779; 3: 710; 4: 851; 5: 704
